Each recorded value in this set is attributed to patent US11033539B2.

molecular target: human M2 receptor (Homo sapiens (Human)); assay: Radioligand (tritiated N-methylscopolamine) binding assay, M2; conditions: CHO cell membranes expressing human M2; 1.5 nM tritiated N-methylscopolamine; 90 min, 37° C.; read-out: Ki against M2 receptor (Table 21, M2)

molecule: O=C(NCCC1CCN(Cc2ccccc2)CC1)C1CCN(c2ccc(OC(F)(F)F)c(F)c2)CC1 [10-8]
Ki: 100 to 1000 nM
//
molecule: C[C@@H]1CN(c2cc(F)c(F)c(F)c2)CCN1C(=O)NC[C@@H](O)C1CCN(Cc2ccccc2)CC1
Ki: 100 to 1000 nM
//
molecule: C[C@@H]1CN(c2cc(F)c(F)c(F)c2)CCN1C(=O)NCCC1CCN(Cc2cccc3c2OCC3)CC1
Ki: 10 to 100 nM
//
molecule: C[C@@H]1CN(c2ccc(C#N)cn2)C[C@H](C)N1C(=O)NCCC1CCN(Cc2ccccc2)CC1
Ki: 100 to 1000 nM

* * *

biological target: human M5 receptor (Homo sapiens (Human)); test: Radioligand (tritiated N-methylscopolamine) binding assay, M5; conditions: CHO cell membranes expressing human M5; 1.5 nM tritiated N-methylscopolamine; 90 min, 37° C.; read-out: Ki against M5 receptor (Table 21, M5)
Sequence (P08912 whole entry): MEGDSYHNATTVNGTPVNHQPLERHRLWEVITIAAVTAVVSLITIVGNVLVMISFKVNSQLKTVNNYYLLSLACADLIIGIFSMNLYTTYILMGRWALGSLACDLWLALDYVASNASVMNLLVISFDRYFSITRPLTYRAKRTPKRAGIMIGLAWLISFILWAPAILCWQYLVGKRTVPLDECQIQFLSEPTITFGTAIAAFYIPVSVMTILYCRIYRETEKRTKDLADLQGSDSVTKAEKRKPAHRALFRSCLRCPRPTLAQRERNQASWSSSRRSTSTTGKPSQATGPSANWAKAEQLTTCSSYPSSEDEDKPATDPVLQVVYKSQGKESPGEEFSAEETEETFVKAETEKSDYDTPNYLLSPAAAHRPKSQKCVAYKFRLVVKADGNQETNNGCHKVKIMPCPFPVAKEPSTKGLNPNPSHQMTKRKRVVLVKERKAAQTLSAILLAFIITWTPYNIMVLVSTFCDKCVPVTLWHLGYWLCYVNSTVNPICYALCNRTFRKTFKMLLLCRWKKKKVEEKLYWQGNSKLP
pKi: −log10 of the molar value.

compound: O=C(NCCC1CCN(Cc2ccccc2)CC1)C1CCN(c2ccc(F)c(OC(F)(F)F)c2)CC1 [10-11]
measurement-target: human M5 receptor (Homo sapiens (Human))
pKi: < 6.00
//
compound: Cc1c(C(=O)NCCC2CCN(Cc3ccccc3)CC2)cnc2cc(-c3ccc(F)cc3)nn12 [18-4]
measurement-target: human M5 receptor (Homo sapiens (Human))
pKi: < 6.00
//
compound: C[C@H]1CN(C(=O)NCCC2CCN(Cc3ccccc3)CC2)CCN1c1cc(F)c(F)c(F)c1 [4-71]
measurement-target: human M5 receptor (Homo sapiens (Human))
pKi: < 6.00
//
compound: C[C@@H]1CN(c2cnc(C(F)(F)F)cn2)CCN1C(=O)NCCC1CCN(Cc2ccccc2)CC1 [22-22]
measurement-target: human M5 receptor (Homo sapiens (Human))
pKi: < 6.00
//
compound: N#Cc1cc(N2CCC(C(=O)NCCC3CCN(Cc4ccccc4)CC3)CC2)ccc1F [9-73]
measurement-target: human M5 receptor (Homo sapiens (Human))
pKi: < 6.00
//
compound: C[C@@H]1CN(c2ccc(F)c(C#N)c2)CCN1C(=O)NC[C@@H](O)C1CCN(Cc2ccccc2)CC1 [3-18]
measurement-target: human M5 receptor (Homo sapiens (Human))
pKi: < 6.00
//
compound: C[C@@H]1CN(c2cc(F)c(F)c(F)c2)CCN1C(=O)NCCC1CCN(Cc2ccc3[nH]ccc3c2)CC1 [6-1]
measurement-target: human M5 receptor (Homo sapiens (Human))
pKi: 6.00 to 7.00
//
compound: COc1cc(N2CCN(C(=O)NCCC3CCN(Cc4ccccc4)CC3)[C@H](C)C2)cc(F)c1C#N [22-32]
measurement-target: human M5 receptor (Homo sapiens (Human))
pKi: 6.00 to 7.00

* * *

Collected Ki values appear next to each entry.
target: human M1 receptor (Homo sapiens (Human), UniProt P11229); experiment: Radioligand (tritiated N-methylscopolamine) binding assay, M1; conditions: CHO cell membranes expressing human M1; 1.5 nM tritiated N-methylscopolamine; 90 min, 37° C.; read-out: Ki against M1 receptor (Table 21, M1)
Sequence (P11229 whole entry): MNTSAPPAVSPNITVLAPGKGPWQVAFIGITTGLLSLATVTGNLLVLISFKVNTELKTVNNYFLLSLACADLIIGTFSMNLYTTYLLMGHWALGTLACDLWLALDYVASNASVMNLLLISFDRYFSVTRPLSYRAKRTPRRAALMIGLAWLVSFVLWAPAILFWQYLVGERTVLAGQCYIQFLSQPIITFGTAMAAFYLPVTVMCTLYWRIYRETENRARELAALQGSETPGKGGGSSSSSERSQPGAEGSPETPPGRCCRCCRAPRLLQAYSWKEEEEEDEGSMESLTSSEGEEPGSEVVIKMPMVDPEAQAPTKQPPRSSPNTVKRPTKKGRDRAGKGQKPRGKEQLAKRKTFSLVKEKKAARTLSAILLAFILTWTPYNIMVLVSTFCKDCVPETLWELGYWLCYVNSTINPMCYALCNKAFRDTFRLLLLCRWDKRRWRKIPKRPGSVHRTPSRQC
measured-parameter: Ki

compound: Cc1c(C(=O)NCCC2CCN(Cc3ccccc3)CC2)cnc2cc(-c3ccc(F)cc3)nn12
value-measured: 100 to 1000 nM

compound: Nc1nc(N2CCN(C(=O)NCCC3CCN(Cc4ccccc4)CC3)CC2)ncc1C(F)(F)F
value-measured: > 1000 nM

compound: Cc1ccc(N2CCN(C(=O)NCCC3CCN(Cc4ccccc4)CC3)[C@H](C)C2)cc1F
value-measured: > 1000 nM

compound: C[C@H]1CN(c2ncc(C(F)(F)F)cn2)CCC1C(=O)NCCC1CCN(Cc2ccccc2)CC1 (some centres unmarked)
value-measured: 10 to 100 nM

compound: O=C(NCCC1CCN(Cc2ccccc2)CC1)N1CCN(c2cnc(C(F)(F)F)cn2)CC1
value-measured: > 1000 nM

compound: C[C@@H]1CN(c2cc(F)cc(C#N)c2)CCN1C(=O)NC[C@@H](O)C1CCN(Cc2ccccc2)CC1
value-measured: > 1000 nM

compound: C[C@@H]1CN(c2ncc(C#N)cn2)C[C@H](C)N1C(=O)NCCC1CCN(Cc2ccc3[nH]ccc3c2)CC1
value-measured: 100 to 1000 nM

compound: C[C@@H]1CN(c2cc(F)c(OC(F)(F)F)c(F)c2)CCN1C(=O)NCCC1CCN(Cc2ccccc2)CC1
value-measured: 100 to 1000 nM

* * *

target: UniProtKB P08173; experiment: Radioligand (tritiated N-methylscopolamine) binding assay, M4; details: Ki against the M4 receptor; membranes from CHO cells expressing human M4; tritiated N-methylscopolamine 1.5 nM; read-out: Ki
pKi: −log10 of the molar value.
measured-parameter: pKi

chemical-string: Cc1c(C(=O)NCCC2CCN(Cc3ccccc3)CC2)cnc2cc(-c3ccccc3)nn12
measured-parameter: pKi
value-measured: 6.00 to 7.00
--
chemical-string: C[C@@H]1CN(c2ccc(C#N)c(F)c2)CCN1C(=O)NCCC1CCN(Cc2ccccc2)CC1
measured-parameter: pKi
value-measured: > 8.00
--
chemical-string: O=C(NCCC1CCN(Cc2ccccc2)CC1)N1CCC(N2Cc3ccccc3NC2=O)CC1
measured-parameter: pKi
value-measured: 6.00 to 7.00
--
chemical-string: C[C@H]1CN(c2ccc(OC(F)(F)F)cc2)CCN1C(=O)NCCC1CCN(Cc2ccccc2)CC1
measured-parameter: pKi
value-measured: > 8.00

* * *

molecular target: human M2 receptor (Homo sapiens (Human), UniProt P08172); test: Radioligand (tritiated N-methylscopolamine) binding assay, M2; settings: CHO cell membranes expressing human M2; 1.5 nM tritiated N-methylscopolamine; 90 min, 37° C.; read-out: Ki against M2 receptor (Table 21, M2)
Sequence (P08172 whole entry): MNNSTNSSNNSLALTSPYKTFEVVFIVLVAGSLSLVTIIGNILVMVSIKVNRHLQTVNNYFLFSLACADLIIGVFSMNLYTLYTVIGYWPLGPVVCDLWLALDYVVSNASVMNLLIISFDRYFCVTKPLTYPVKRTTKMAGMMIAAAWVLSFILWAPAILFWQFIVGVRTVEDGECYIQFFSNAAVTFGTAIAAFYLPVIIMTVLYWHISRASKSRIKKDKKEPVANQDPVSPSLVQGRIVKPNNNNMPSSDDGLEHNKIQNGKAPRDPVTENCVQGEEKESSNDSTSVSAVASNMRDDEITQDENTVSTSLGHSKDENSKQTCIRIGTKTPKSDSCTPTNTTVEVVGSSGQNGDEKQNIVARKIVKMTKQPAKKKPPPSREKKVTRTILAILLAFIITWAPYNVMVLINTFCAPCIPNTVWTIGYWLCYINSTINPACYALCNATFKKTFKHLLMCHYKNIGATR

molecule: C[C@@H]1CN(c2cc(F)c(F)c(F)c2)CCN1C(=O)NCCC1CCN(Cc2ccc(F)cc2)CC1
Ki: 100 to 1000 nM
--
molecule: C[C@@H]1CN(c2ccc(F)c(C#N)c2)CCN1C(=O)NCCC1CCN(Cc2ccccc2)CC1
Ki: 100 to 1000 nM
--
molecule: O=C(NCCC1CCN(Cc2ccccc2)CC1)N1CCN(c2ccc(C(F)(F)F)cc2)CC1
Ki: 100 to 1000 nM
--
molecule: C[C@@H]1CN(c2ccc(OC(F)(F)F)cc2F)CCN1C(=O)NCCC1CCN(Cc2ccccc2)CC1
Ki: 10 to 100 nM
--
molecule: C[C@@H]1CN(c2ncc(C#N)cn2)C[C@H](C)N1C(=O)NCCC1CCN(Cc2cccc(F)c2)CC1
Ki: < 10 nM
--
molecule: C[C@@H]1CN(c2ncc(C(F)(F)F)c(N)n2)CCN1C(=O)NCCC1CCN(Cc2ccccc2)CC1 [21-17]
Ki: < 10 nM
--
molecule: C[C@@H]1CN(c2ncc(C(F)(F)F)c(N)n2)CCN1C(=O)NCCC1CCN(Cc2ccccc2)CC1 [5-29]
Ki: 100 to 1000 nM
--
molecule: C[C@@H]1CN(c2nc(Cl)cc(C#N)n2)CCN1C(=O)NCCC1CCN(Cc2ccccc2)CC1
Ki: 100 to 1000 nM

* * *

molecular target: human M4 receptor (Homo sapiens (Human), UniProt P08173); test: Radioligand (tritiated N-methylscopolamine) binding assay, M4; conditions: Ki against the M4 receptor; membranes from CHO cells expressing human M4; tritiated N-methylscopolamine 1.5 nM; read-out: Ki
Sequence (P08173 whole entry): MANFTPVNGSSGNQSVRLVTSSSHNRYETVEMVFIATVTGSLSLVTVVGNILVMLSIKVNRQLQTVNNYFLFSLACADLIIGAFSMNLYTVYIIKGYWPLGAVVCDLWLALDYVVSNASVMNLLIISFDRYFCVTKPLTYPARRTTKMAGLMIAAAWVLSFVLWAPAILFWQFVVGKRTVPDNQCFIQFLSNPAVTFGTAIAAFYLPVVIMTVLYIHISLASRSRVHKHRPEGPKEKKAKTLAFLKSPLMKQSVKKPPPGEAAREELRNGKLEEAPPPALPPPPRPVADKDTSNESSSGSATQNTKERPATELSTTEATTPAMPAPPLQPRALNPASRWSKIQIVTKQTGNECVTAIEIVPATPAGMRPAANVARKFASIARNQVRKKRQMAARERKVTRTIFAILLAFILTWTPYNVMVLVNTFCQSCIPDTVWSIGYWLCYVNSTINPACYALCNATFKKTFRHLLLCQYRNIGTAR

compound: Cc1c(C(=O)NCCC2CCN(Cc3ccccc3)CC2)cnc2cc(-c3cccc(C#N)c3)nn12
Ki: 10 to 100 nM
//
compound: Cc1cc(C)nc(N2CCC(C(=O)NCCC3CCN(Cc4ccccc4)CC3)CC2)n1
Ki: 100 to 1000 nM
//
compound: N#Cc1ccc(N2CCC(C(=O)NCCC3CCN(Cc4ccccc4)CC3)CC2)cc1
Ki: 10 to 100 nM
//
compound: O=C(NCCC1CCN(Cc2csnn2)CC1)C1CCN(c2ccc(OC(F)(F)F)cc2)CC1
Ki: 100 to 1000 nM
//
compound: C[C@@H]1CN(c2ncc(C#N)cn2)C[C@H](C)N1C(=O)NCCC1CCN(CC2CCC2)CC1
Ki: 100 to 1000 nM
//
compound: COC1(C(=O)NCCC2CCN(Cc3ccccc3)CC2)CCN(c2ccc(C(F)(F)F)cn2)CC1
Ki: 100 to 1000 nM
//
compound: O=C(NCCC1CCN(Cc2ccccc2)CC1)C1CCN(c2ccccc2F)CC1
Ki: 100 to 1000 nM
//
compound: C[C@H]1CN(c2ccc(F)c(C#N)c2)CCN1C(=O)NCCC1CCN(Cc2ccccc2)CC1
Ki: < 10 nM
//
compound: O=C(NCCC1CCN(Cc2ccccc2)CC1)c1ccc(-c2ccc(OC(F)(F)F)cc2)cc1F
Ki: < 10 nM
//
compound: COc1cc(C)c(-c2cc3ncc(C(=O)NCCC4CCN(Cc5ccccc5)CC4)c(C)n3n2)cn1
Ki: 100 to 1000 nM
//
compound: C[C@@H]1CN(c2ncc(C#N)c(N)n2)CCN1C(=O)NCCC1CCN(Cc2ccccc2)CC1
Ki: < 10 nM
//
compound: C[C@@H]1CN(c2cc(F)cc(C#N)c2)CCN1C(=O)NC[C@@H](O)C1CCN(Cc2ccccc2)CC1
Ki: < 10 nM
//
compound: N#Cc1cc(F)cc(N2CCN(C(=O)OCCC3CCN(Cc4ccccc4)CC3)CC2)c1
Ki: 100 to 1000 nM
//
compound: O=C(NCCC1CCN(Cc2ccccc2)CC1)N1CCN(c2cccc(O)c2)CC1
Ki: 100 to 1000 nM
//
compound: C[C@@H]1CN(c2cccc(OC(F)(F)F)c2)CCN1C(=O)NCCC1CCN(Cc2ccccc2)CC1
Ki: < 10 nM
//
compound: O=C(NCCC1CCN(Cc2ccccc2)CC1)N1CCN(c2ncc(C(F)(F)F)cc2Cl)CC1
Ki: 10 to 100 nM
//
compound: O=C(NCCC1CCN(Cc2ccccc2)CC1)N1CCC(c2ccc(F)cc2)CC1
Ki: 100 to 1000 nM
//
compound: C[C@@H]1CN(c2cc(F)c(F)c(F)c2)CCN1C(=O)NCCC1CCN(Cc2ccc3c(c2)OCCO3)CC1
Ki: 10 to 100 nM
//
compound: C[C@@H]1CN(c2ccc(F)cc2F)CCN1C(=O)NCCC1CCN(Cc2ccccc2)CC1
Ki: 10 to 100 nM
//
compound: C[C@@H]1CN(c2cc(F)c(F)cc2F)CCN1C(=O)NCCC1CCN(Cc2ccccc2)CC1
Ki: 10 to 100 nM
//
compound: C[C@@H]1CN(c2ccc(C#N)cc2)C[C@H](C)N1C(=O)NCCC1CCN(Cc2ccccc2)CC1
Ki: < 10 nM
//
compound: N#Cc1cc(N2CCC(O)(C(=O)NCCC3CCN(Cc4ccccc4)CC3)CC2)ccc1OC(F)(F)F
Ki: 10 to 100 nM
//
compound: O=C(NCCC1CCN(Cc2ccccc2)CC1)C1(O)CCN(c2ccc(OC(F)(F)F)cn2)CC1
Ki: 100 to 1000 nM
//
compound: C[C@@H]1CN(c2cnc(C(F)(F)F)nc2)C[C@H](C)N1C(=O)NCCC1CCN(Cc2ccccc2)CC1
Ki: 10 to 100 nM
//
compound: O=C(NCCC1CCN(Cc2ccccc2)CC1)c1ccc(-c2cccs2)cc1
Ki: 100 to 1000 nM
//
compound: C[C@@H]1CN(c2ncc(C(F)(F)F)cn2)CCN1C(=O)NCCC1CCN(Cc2cccc(C#N)c2)CC1
Ki: < 10 nM
//
compound: COc1ccc(N2CCN(C(=O)NCCC3CCN(Cc4ccccc4)CC3)CC2C)cc1 (stereo not shown)
Ki: 100 to 1000 nM
//
compound: C[C@@H]1CN(c2cnc(C#N)nc2)CCN1C(=O)NCCC1CCN(Cc2ccccc2)CC1
Ki: < 10 nM
//
compound: C[C@@H]1CN(c2cc(F)c(F)c(F)c2)CCN1C(=O)NCCC1CCN(Cc2ccccc2)CC1
Ki: < 10 nM
//
compound: C[C@@H]1CN(c2cc(F)c(F)c(F)c2)CCN1C(=O)NCCC1CCN(Cc2ccccc2)CC1CO (stereo partly shown)
Ki: < 10 nM
//
compound: C[C@@H]1CN(c2cc(F)nc(F)c2)CCN1C(=O)NCCC1CCN(Cc2ccccc2)CC1
Ki: < 10 nM
//
compound: O=C(NCCC1CCN(Cc2ccccc2)CC1)c1ccc(-c2ccc(F)cc2)cc1
Ki: 10 to 100 nM
//
compound: CCC(C)NC(=O)c1cnc(N2C[C@@H](C)N(C(=O)NCCC3CCN(Cc4ccccc4)CC3)[C@@H](C)C2)nc1 (stereo partly shown)
Ki: 100 to 1000 nM
//
compound: C[C@@H]1CN(c2ncc(C(F)(F)F)cn2)CCN1C(=O)NCCC1CCN(Cc2cncnc2)CC1
Ki: 100 to 1000 nM
